Overview of reported INHIBITION across a group of compounds:
- Test system: Plasmodium berghei
- protocol-description: Screen against P. berghei liver stage (PbLuc), transformed with Luciferase, at 2uM
- Assay type: functional, HepG2
- condition-parameters: tested at 2 uM
The whole screen tested about 68,000 compounds, of which about 2,700 (4%) showed an effect of 50% or more. The full list was thinned out, with strong results kept by preference.
Supply the numeric figure in %, leaving out any unit text.

Give the measured INHIBITION of `Cc1nc(N2CCOc3ccc(CO)cc3C2)c2nc(C)oc2n1` .
34.52

----------
Overview of reported INHIBITION across a group of compounds:
- System: Plasmodium berghei
- protocol-description: Screen against P. berghei liver stage (PbLuc), transformed with Luciferase, at 2uM
- Type: functional, HepG2
- condition-parameters: tested at 2 uM
The campaign covered roughly 68,000 compounds. About 2,700 (4%) showed an effect of 50% or more. Only a selection was taken, and strong results are over-represented in it overall.
Supply the numeric figure in %, leaving out any unit text.

Solved entries:
{"columns": ["compound", "recorded-metric", "endpoint-value"],
 "data": [
  ["CCn1nc(C)cc1C(=O)N1C[C@@H](CN(C)C)[C@@H](CO)C1", "INHIBITION", 31.31],
  ["CC(C)(C)n1ncc2c1NC(=O)CC2c1cccc(O)c1 (stereo not given)", "INHIBITION", 31.54],
  ["CCN(C)C[C@@H]1CN(C(=O)c2cc(-c3ccc(F)cc3)n[nH]2)C[C@@H]1CO", "INHIBITION", 54.49],
  ["CC(C)c1nn(C)c(N(C)C)c1CNCc1ccc2c(c1)OCCO2", "INHIBITION", 66.2],
  ["CN1CCN(C(=O)C2CCCN(c3cccnn3)C2)CC1 (stereo not given)", "INHIBITION", 59.49]
]}

Give the measured INHIBITION of `CC(C)c1nn(C)c(N(C)C)c1CNCc1ccc2c(c1)OCO2` .
-41.21

Same question, O=C(CC1CCc2ccccc21)NC1(C(=O)O)CCCC1 (stereo not given) this time
16.93

Same question, `CC(C)c1nc2c(n1C)CCN(CC(=O)Nc1nncs1)C2` this time
60.09

Same question, `COc1ccc(C(=O)CCc2nc(C3CC3)no2)cc1` this time
9.43

Same question, `COc1ncccc1CNCc1c(C(C)C)nn(C)c1N(C)C` this time
43.28

Same question, `Cc1ccc(C(=O)N(Cc2cccc(F)c2)C2CC2)c(=O)[nH]1` this time
63.46

----------
- System: Plasmodium berghei
- protocol-description: Screen against P. berghei liver stage (PbLuc), transformed with Luciferase, at 2uM
- Assay type: functional, HepG2
- condition-parameters: tested at 2 uM
About 2,700 (4%) of roughly 68,000 compounds showed an effect of 50% or more. What follows is part of a selection rich in strong results, with near analogues and random picks from the rest.
Overview of reported INHIBITION across a group of compounds:
Supply the numeric figure in %, leaving out any unit text.

Solved entries:
{"columns": ["compound", "recorded-metric", "endpoint-value"],
 "data": [
  ["CCC(=O)Nc1cccc(OCC(=O)N(C)Cc2ccon2)c1", "INHIBITION", 19.91],
  ["CCOCCCC(=O)NS(=O)(=O)c1ccc(C)s1", "INHIBITION", 23.64],
  ["CCn1c(CC2CCN(S(=O)(=O)c3cccc(C)c3)CC2)nn(C)c1=O", "INHIBITION", 38.96],
  ["CCCS(=O)(=O)N1C[C@@H]2C[C@H](C(=O)N3CCCC3)[C@H](C1)O2", "INHIBITION", 22.71],
  ["Cc1ccc(S(=O)(=O)NC(=O)CCOCC(C)C)s1", "INHIBITION", -13.12],
  ["CN(C)CC1CSCCCN1C(=O)c1ccc(-n2cccc2)cc1 (stereo not drawn)", "INHIBITION", 15.49],
  ["CS(=O)(=O)c1cccc(S(=O)(=O)NC(=O)CC2CCCCC2)c1", "INHIBITION", -20.19]
]}

Here's the next entry for you.
Give the measured INHIBITION of `COCCNc1ncc(-c2cc(C)no2)c(-c2ccco2)n1` .
-29.24

----------
- System: Plasmodium berghei
- protocol-description: Screen against P. berghei liver stage (PbLuc), transformed with Luciferase, at 2uM
- Format: functional, HepG2
- condition-parameters: tested at 2 uM
About 2,700 (4%) of roughly 68,000 compounds showed an effect of 50% or more. Shown is part of a subset that was picked to be rich in strong results.
recorded-metric: INHIBITION (%)
Supply the numeric figure in %, leaving out any unit text.

{"columns": ["compound", "unit-string", "INHIBITION"],
 "data": [
  ["COc1ccc(C(C)NCc2ccc(OC)c(OC)c2OC)cc1F (stereo not given)", "%", -6.67]
]}

Give the measured INHIBITION of `CN(CCOc1cccc(Cl)c1)Cc1nnc(C(C)(C)C)o1` .
-19

Same question, O=C(C1CCCCN1Cc1nc(-c2ccco2)no1)N1CCCC1 (stereo not given) this time
-113.33

Same question, CC(CNC(=O)CCCn1cncn1)N1CCc2ccccc2C1 (stereo not given) this time
-48.63

Same question, CCC(CNC(=O)CCn1cncn1)N1CCc2ccccc2C1 (stereo not given) this time
60

Same question, `CC(=O)Nc1ccc(CNc2ccn(Cc3ccccc3)n2)cc1` this time
35.56

Same question, COc1c(CNC2CCCc3ccccc32)c(C)nn1C (stereo not given) this time
11.28

Same question, CCc1nc(C2CCCN2CCn2cncn2)no1 (stereo not given) this time
58.49

Same question, CC(Nc1ncnc2c1CCNC2)c1ccc2c(c1)CCCC2 (stereo not given) this time
48.21

Same question, CCc1nc(C2CCCN2C(=O)CCCn2cncn2)no1 (stereo not given) this time
37.31

----------
- Tested on: Plasmodium berghei
- protocol-description: Screen against P. berghei liver stage (PbLuc), transformed with Luciferase, at 2uM
- Assay type: functional, HepG2
- condition-parameters: tested at 2 uM
In all, about 68,000 compounds went through this assay and about 2,700 (4%) showed an effect of 50% or more. What follows is part of a selection rich in strong results, with near analogues and random picks from the rest.
Overview of reported INHIBITION across a group of molecules:
Supply the numeric figure in %, leaving out any unit text.

{"columns": ["molecule", "subject-of-test", "recorded-metric", "endpoint-value"],
 "data": [
  ["Cn1cc(CNC(=O)c2cc3c(s2)CCCCC3)cn1", "Plasmodium berghei", "INHIBITION", 36.66],
  ["Cc1occc1C(=O)N1CCC2(CCN(Cc3ccccn3)C2=O)C1 (stereo not given)", "Plasmodium berghei", "INHIBITION", 49.25],
  ["CCOc1ccc(S(=O)(=O)NCCCc2ccc(N(C)C)cc2)cc1F", "Plasmodium berghei", "INHIBITION", 51.71]
]}

Notebook: pull reported INHIBITION for Plasmodium berghei, entry `O=C([C@H]1CCCO1)N1CCc2ncnc(NC3CC3)c2CC1`
-15.36

Same question, `COc1ccc(S(=O)(=O)NCCCc2ccc(N(C)C)cc2)cc1F` this time
25.53

----------
- Tested on: Plasmodium berghei
- protocol-description: Screen against P. berghei liver stage (PbLuc), transformed with Luciferase, at 2uM
- Type: functional, HepG2
- condition-parameters: tested at 2 uM
Hit rate of the full screen: of about 68,000 compounds, about 2,700 (4%) showed an effect of 50% or more. The sample as a whole holds a higher share of strong results than the screen did.
Overview of reported INHIBITION across a group of compounds:
Please append the unit to your numeric answer.

Solved entries:
{"columns": ["compound", "endpoint-value"],
 "data": [
  ["CCCc1nc(C)cc(N2CCNC(C(=O)NCc3cccnc3)C2)n1 (stereo not given)", "19.81%"],
  ["CCn1c(NCc2cccnc2)nc2c(C)nn(C)c2c1=O", "24.79%"],
  ["Cc1oc(CN(C)C(=O)c2ccc(C(F)(F)F)cc2)cc1C(=O)O", "40.4%"],
  ["CN(C)C(=O)CCCNC(=O)C(c1cccc(F)c1)N(C)C (stereo not given)", "-4.92%"],
  ["CCN1CCC(CC(=O)NCC(O)c2ccc3ccccc3c2)CC1 (stereo not given)", "52.08%"],
  ["CN(C)c1ccc(C(=O)N2CCCC(n3cccn3)C2)nn1 (stereo not given)", "37.68%"],
  ["CC(C)Oc1cc(N2CCN(Cc3ccsc3)C(CCO)C2)nc(N)n1 (stereo not given)", "51.76%"],
  ["CCn1c(NCc2ccccn2)nc2c(C)nn(C)c2c1=O", "50.9%"]
]}

Give the measured INHIBITION of `CC(C)c1cccc(-n2cc(O)c(C(N)=O)n2)c1` .
11.9%

Same question, `CCC1(CO)CCN(C(=O)c2cc(COc3ccccc3F)[nH]n2)CC1` this time
-64.06%

Same question, Cc1cnn(C2CCCN(C(=O)c3ccc(N(C)C)nn3)C2)c1 (stereo not given) this time
69.41%

Same question, `Cc1nc(C(C)C)sc1C(=O)N(C)Cc1cnn(C)c1` this time
-35.11%

Same question, `CC(C)n1nc2c(cc1=O)CN(c1ncnc3sccc13)CC2` this time
-35.16%

Same question, `CC(C)Oc1ncnc2c1CCN(Cc1ccc(F)cc1)CC2` this time
1.08%
